# Measurement target: muscarinic receptors
# Assay notes: 3H-oxotremorine-M binding assay
# Test settings: 3 nM 3H-oxotremorine-M, rat cerebral cortical membranes, 15 min 25° C.; read-out: Inhibition of 3H-Oxo
# Lookup of reported IC50 keyed by entry
All answers are understood in nM, so give the number only.

Solved entries:
Molecule | Reported result
CCCCCSc1nsnc1[C@H]1CN2CCC[C@H]1C2 (relative stereo) [Compound 31] | 1.8
CSc1nsnc1[C@H]1CN2CCC[C@H]1C2 (relative stereo) [Compound 74] | 1.4

Would you kindly look at the next entry?
# input Given N#Cc1ccc(CSc2nsnc2[C@H]2CN3CCC[C@H]2C3)cc1 (relative stereo) [Compound 82] , state its recorded IC50.
# output 1.3
